assay: yeast display, Sf9 membrane polyspecificity reagent, FACS + sequencing; frameworks hold sequencing errors
propertyName: polyreactivity (PSR sort gate)

Examples with answers:
[[record]]
sequencecode = "QVQLVESGGGLVQAGGSLRLSCAASGRTFLYYTMGWYRQAPGTERELVATINYSGGRTYYADSVKGRFTISRDNANNTVYFQMNSLKPVATAVYFWAKSGRALWWYDYWGQGTQVTVSS"
propertyname = "polyreactivity (PSR sort gate)"
result = "high polyreactivity"

[[record]]
sequencecode = "QVQLVESGGGLVQAGGSLRLSCAASGSTFQYNAMGWYRQAPGKERELVARISSSGGRTYYADSVKGRFTISRDNAKNTVYLQMNSLKPEDTAVYYCNKGYPYVAYDYWGQGTQVTVSS"
propertyname = "polyreactivity (PSR sort gate)"
result = "high polyreactivity"

[[record]]
sequencecode = "QVQLVESGGGLVQAGGSLRLSCAASGIIFDINAMGWYRQAPGKERELVAAITTSVDSTYYADSVKGRFTISRDNAKNTVYLQMNSLKPEDTAVYYCAAGPGDSGDDYWGQGTQVTVSS"
propertyname = "polyreactivity (PSR sort gate)"
result = "low polyreactivity"

[[record]]
sequencecode = "QVQLVESGGGLVQAGGSLRLSCAASGSTFENYAMGWSRQAPGKERELVAAISWSGGSTYYADSVKGRFTISRDNAKNTVYLQMNSLKPEDTAVYYCNAELYLRWGVTVTFDYWGQGTQVTVSS"
propertyname = "polyreactivity (PSR sort gate)"
result = "low polyreactivity"

[[record]]
sequencecode = "QVQLVESGGGLVQAGGSLRLSCAASGSIFVGNAMGWYRQAPGKERELVAAITRSGGRTYYADSVKGRFTISRDNAKNTVYLQMNSLKPEDTAVYYCNAVYWTVYSREYDYWGQGTQVTVSS"
propertyname = "polyreactivity (PSR sort gate)"
result = "high polyreactivity"

[[record]]
sequencecode = "QVQLVESGRGLVQAGGSLRLSCAASGSIFRRYAMGWYRQAPGKERELVAGITRSGGNTYYADSVKGRFTISRDNAKNTVYLQMNSLKPEDTAVYYCAARHRYNIRTYDAWGQGTQVTVSS"
propertyname = "polyreactivity (PSR sort gate)"
result = "high polyreactivity"


The reported value for `QVQLVESGGGLVQAGGSLRLSCAASGSIFRAYAMGWYRQAPGKEMELVAAISSGVSTNYADSVKGRFTISRDNAKNTVYLQMNSLKPEDTAVYYCNTDKYSESYRSYEYWGQGTQVTVSS` in terms of polyreactivity (PSR sort gate) is low polyreactivity

The reported value for `QVQLVESGGGLVQAGGSLRLSCAASGIIFYFYAMGWYRQAPGKERELVAAISRGGSTKYADSVKGRFTISRDNAKNTVYLQMNSLKPEDTAVYYCAATRRRPSEYYYWGPGTQVTVSS` in terms of polyreactivity (PSR sort gate) is high polyreactivity

The reported value for `QVQLVESGGGLVQAGGSLRLSCAASGSIFPYNVMGWYRQAPGKERELVAAITRRGGSTYYADSVKGRFTISRDNAKNTVYLQMNSLKPEDTAVYYCAAVPYPRGKGYDYWGQGTQVTVSS` in terms of polyreactivity (PSR sort gate) is high polyreactivity

The reported value for `QVQLVESGGGLVQAGGSLRLSCAASGITFYRYAMGWYREAPGKERELVAAISRSGGGTHYADTVKGRFTISRDNAMNTVYLQMYCLKPEDTAVFYCAASAYSYDYWGQGNQVTVSS` in terms of polyreactivity (PSR sort gate) is high polyreactivity
